- subject of test: MDM2 (Homo sapiens, UniProt Q00987)
- Sequence (Q00987 whole entry): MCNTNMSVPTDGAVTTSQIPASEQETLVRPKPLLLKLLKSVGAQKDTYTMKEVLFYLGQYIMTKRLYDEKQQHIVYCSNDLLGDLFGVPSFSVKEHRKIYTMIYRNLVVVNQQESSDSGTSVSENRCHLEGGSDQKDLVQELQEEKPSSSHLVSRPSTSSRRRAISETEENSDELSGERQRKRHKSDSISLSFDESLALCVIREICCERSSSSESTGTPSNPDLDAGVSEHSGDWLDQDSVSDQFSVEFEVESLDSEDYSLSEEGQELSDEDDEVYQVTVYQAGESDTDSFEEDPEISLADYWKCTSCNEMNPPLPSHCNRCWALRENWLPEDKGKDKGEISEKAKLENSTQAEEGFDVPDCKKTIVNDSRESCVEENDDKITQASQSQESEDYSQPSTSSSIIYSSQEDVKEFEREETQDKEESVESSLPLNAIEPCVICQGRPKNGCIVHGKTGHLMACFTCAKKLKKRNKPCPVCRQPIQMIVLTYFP
- procedure text: MDM2 binding screen: displacement of fluorescent p53 peptide probe FP53 (fluorescence polarization)
- assay context: crude reaction of macrocycle scaffold with Acid 25; (initial screen)
Hi there, I'd appreciate the recorded fraction fluorescent probe displaced for every entry that follows.
Please reply with the number alone, leaving off any unit.

[in] Which fraction fluorescent probe displaced is listed for O=C1NC2(CCN(C(=O)c3ccc(Cl)cc3)CC2)C(=O)N[C@@H](Cc2ccccc2)C(=O)NCCSSCCC(=O)N2CCC[C@H]1C2 ?
[out] 0.0462

[in] Subsequent entry: O=C1NC(Cc2ccccc2)C(=O)NC2(CCN(C(=O)c3ccc(Cl)cc3)CC2)C(=O)NCCSSCCC(=O)N2CCCC1C2 (stereo not shown)
[out] 0.09

[in] Subsequent entry: O=C1NCCSSCCC(=O)N2CCCC(C2)C(=O)N2CCN(C(=O)c3ccc(Cl)cc3)CC2C(=O)NC1Cc1ccccc1 (stereo not shown)
[out] 0.15

[in] Subsequent entry: O=C1CCSSCCNC(=O)[C@H](Cc2ccccc2)NC(=O)[C@H]2CCCN(C2)C(=O)C2(CCN(C(=O)c3ccc(Cl)cc3)CC2)N1
[out] 0.09
